Test system: NU-DUL-1
Experiment: Cell proliferation assay (6 days, CellTiter-Glo)
Type: cell-based
Conditions: Homo sapiens, 144 h, B-NHL, EZH2 WT, read-out: AVERAGE GROWTH IC50
READOUT TYPE: IC50 (µM)
Quick reminder: number only, in µM, skip the unit.

Qu. Item: `CC[C@H](C)n1cc(C)c2c(C(=O)NCc3c(C)cc(C)[nH]c3=O)cc(-c3ccc(N4CCNCC4)nc3)cc21` Test system: NU-DUL-1 Read-out: IC50 Value: ?
Ans. 17.1

###

System: CROAP2
Assay: 6 day proliferation assay (assay 1)
Format: cell-based
Conditions: Homo sapiens, CRO-AP2, 144 h, 6 days, EZH2 WT, read-out: Compound A gIC50
Protocol: Cells were cultured in appropriate medium in flasks to 80-100% confluency. Cells were harvested, counted and plated at a pre-determined optimal seeding density ranging from 50 cells per well to 4000 cells per well depending on the growth characteristics of individual cell lines in 384-well tissue culture plates (Greiner #781090). […] A time zero (t0) reading was taken on the day of compound addition. […] Luminescence was measured on the Tecan Safire2. Data were analyzed using Assay Client software. […]
READOUT TYPE: pIC50
Just so you know, pIC50 here is -log10 of the concentration in molar units; reply with that number alone.

Qu. Quick one: pIC50 for `CCCc1cc(C)[nH]c(=O)c1CNC(=O)c1cc(-c2ccc(N3CCN(C)CC3)nc2)cc2c1cnn2C(C)C` ?
Ans. 4.95
